B1: TPR t1 (parent)
chain: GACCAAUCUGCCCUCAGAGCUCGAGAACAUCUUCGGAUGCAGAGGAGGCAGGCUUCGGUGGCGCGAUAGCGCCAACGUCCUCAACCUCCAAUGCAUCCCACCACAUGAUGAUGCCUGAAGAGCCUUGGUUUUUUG

- Variants of: B1
- experimental_details: polymerase ribozyme fitness, log enrichment relative to wild type (log ratio); higher = more active; in vitro selection for triplet polymerase activity
property_name: polymerase ribozyme fitness (log ratio)
Give the figure only, with no unit attached.

Here are 2 variants together with their reported answers.
mutation_notation	numeric_readout
A37C G45A A83C A100U G113C	-4.29
C13A U129A	-2.8

Q: Please give the measured polymerase ribozyme fitness (log ratio) for this variant: C12A U14G G71U
Result: -2.39

Q: Please give the measured polymerase ribozyme fitness (log ratio) for this variant: G47A C85G G113A U132A
Result: -2.45

Q: Please give the measured polymerase ribozyme fitness (log ratio) for this variant: C13U G47C C73A C99U
Result: -4.72

Q: Please give the measured polymerase ribozyme fitness (log ratio) for this variant: A2U C15A A16C G17A C72A C85G A118U C124G
Result: -2.91

Q: Please give the measured polymerase ribozyme fitness (log ratio) for this variant: C8U C22U G39U G113A G120C C123A
Result: -5.45

Q: Please give the measured polymerase ribozyme fitness (log ratio) for this variant: C3U C79G C97G A121G
Result: -5.3

Q: Please give the measured polymerase ribozyme fitness (log ratio) for this variant: U21C C28A G57U C70A U78G G110U
Result: -3.7

Q: Please give the measured polymerase ribozyme fitness (log ratio) for this variant: A50U C88A G110A
Result: -3.66
